- protocol description: Displacement of gamma-[6-aminohexyl]-GTP-biotin from Influenza B virus B/Brisbane/60/2008 C-terminal 6His-tagged PB2 (320 to 484 residues) expressed in Escherichia coli incubated for 1 hr by TR-FRET assay
outcome measure: pIC50
Here pIC50 is given on a logarithmic scale as minus log10 of the concentration in mol/L.

Per the records, this compound ( N#Cc1cc(F)c2[nH]cc(-c3ncc(F)c(N[C@H]4C5CCC(CC5)[C@@H]4C(=O)O)n3)c2c1 ) has pIC50 equal to 4.89

Now examine the next entry.
Per the records, this compound ( Cc1cc(F)c2[nH]cc(-c3ncc(F)c(N[C@H]4C5CCC(CC5)[C@@H]4C(=O)O)n3)c2c1 ) has pIC50 equal to 4.59
